System: SF-268 CNS
Assay: NCI-60 one-dose screen, 48 h
Settings: 10 µM unless noted
Procedure: Cells are grown in 96 well plates and exposed to the test compound for 48 hours. Compounds are tested at a single concentration, which is 10^-5 M for most compounds. The reported endpoint is percent growth (GI% or GIPRCNT), where numbers from 0 - 100% represent growth inhibition, and numbers from -100% - 0 represent cell death. For example, a value of 40 represents 60% growth inhibition. A value of 0 means no net growth occurred over the course of the experiment. […]
About 83,000 compounds went through this panel and 20% of them were active in at least one assay; those are over-represented in the sample as a whole. Calls of active or inactive are those of the source. Rule for the calls: active = growth percent below 10; inactive = the rest.
The categories you may choose from are Yes for active, No for inactive

O=S(=O)(NCCCNc1cc(-c2cn(-c3ccccc3)nc2-c2cccc(O)c2)ccn1)c1cccc(F)c1    No

stdin: I would be grateful if you could indicate the recorded call for CC1(C)OC2COC3(C(=O)O)OC(C)(C)OC3C2O1 (stereo not drawn) .
stdout: No

stdin: I would be grateful if you could indicate the recorded call for Cc1cccc2cc(/C=C/C(=O)/C=C/c3ccc(Cl)cc3)c(=O)[nH]c12 .
stdout: No

stdin: I would be grateful if you could indicate the recorded call for CC(C)C[C@H](NC(=O)[C@@H](Cc1ccccc1)n1ccc(Nc2ccccc2)cc1=O)B(O)O .
stdout: Yes

###

Test system: SK-OV-3 ovarian
Assay: NCI-60 one-dose screen, 48 h (100 = growth as untreated, 0 = no growth, -100 = all killed)
Conditions: 10 µM unless noted
About 83,000 compounds went through this panel and 20% of them were active in at least one assay; those are over-represented in the sample as a whole.
metric: growth (%)
Express it in %; write the number only.

Example cases with answers are listed next.
CCO/C=N/NC(=O)c1ccncc1    109
Cc1ccc2c(c1)ncn2-c1ncnc2c1CC(C)c1ccccc1N2C (stereo not given)    29.6
COc1ccc(Cn2cc(COc3cc(/C=C/C(=O)c4cc(OC)c(OC)c(OC)c4)ccc3OC)nn2)cc1    72
O=C(Nc1cccc(Cl)c1)c1cc([N+](=O)[O-])ccc1O    59.8
COc1ccc(OC)c(-c2ccc(-c3ccccc3N)c3[nH]c4ccccc4c23)c1    88.6
COc1cc(Cn2c(SCCC(=O)Nc3ccc(F)cc3)nc3ccccc3c2=O)cc(OC)c1OC    95
Nc1nc(N)c2nc(CNc3ccc(C(=O)CC(CCC(=O)O)C(=O)O)cc3)cnc2n1 (stereo not given)    52
O=S(=O)(c1ccccc1)n1ccc(-c2ccc3c(c2)CCO3)n1    104

stdin: I have this molecule here, CCn1cc(C(=O)O)c(=O)c2cc(F)c(N3CCN(S(=O)(=O)c4ccc(OC)c(OC)c4)CC3)cc21 , and I need its recorded growth.
stdout: 135

stdin: I have this molecule here, COc1cc2nc(N3CCC[C@@H](NC4=CC(=O)c5ccccc5C4=O)C3)nc(N)c2cc1OC , and I need its recorded growth.
stdout: 112

###

System: NCI-H23 lung
Test: NCI-60 one-dose screen, 48 h (100 = growth as untreated, 0 = no growth, -100 = all killed)
Settings: 10 µM unless noted
Compounds without any hit were thinned out: in the full panel of roughly 83,000, 20% have a hit.
Hi! Just check whether growth is below 50%. Below gives rule met, equal or above gives rule not met.

COC(=O)[C@H]1[C@H](OC)[C@@H](OC(=O)/C=C/c2ccncc2)CC2CN3CCc4c([nH]c5cc(OC)ccc45)[C@@H]3C[C@@H]21 (some centres undefined)    rule not met
CN(C)c1ccc(/C=C\N=Nc2ccc(Br)cc2)cc1    rule not met

Then there is this molecule:
stdin: Lab note: confirm whether the reported growth for this molecule is below 50%, equality not counting. molecule: Cc1oc2ncnc(Nc3ccccc3)c2c1C(=O)NCCO
stdout: rule not met
